Data credit: the MegaScale stability set (Tsuboyama et al. 2023)

B1: EEHEE_rd3_1049 (parent)
chain: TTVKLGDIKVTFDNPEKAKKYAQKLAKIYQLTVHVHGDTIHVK

Variants of: B1
EXPERIMENT DESCRIPTION: folding stability dG (cDNA display proteolysis); higher = more stable
CONDITION NOTES: PBS, room temperature
Quick rule: folding stability dG of at least 1 kcal/mol means satisfied, below that means not satisfied.

INSERT INTO results (variant_code, class_name) VALUES
  ('V35C', 'satisfied'),
  ('K27S', 'satisfied');

Turning now to a further record.
q: Given `Y21H` , state whether its folding stability dG is at least 1 kcal/mol.
a: not satisfied
